- targetOfAssay: Ubiquitin carboxyl-terminal hydrolase 8 (Homo sapiens)
- assayRemarks: Inhibition of N-terminal His-6 tagged USP8 (734 to 1110 residues) (unknown origin) expressed in Escherichia coli BL21 (DE3) cells at 100 nM measured after 3 hrs by fluorescence based Plate reader method relative to control
- measurementParameters: values are per cent of control
# reported residual activity; entries follow
Numeric only. Scale: %

Below, 3 compounds whose answers are already recorded.
[
  {
    "smilesRecord": "CN1CC[C@@H](Oc2ccc(-c3nc4c(o3)C(=O)c3ccccc3C4=O)c(C(F)(F)F)c2)C1",
    "residual activity, %": 42.5
  },
  {
    "smilesRecord": "O=C1c2ccccc2C(=O)c2oc(-c3ccccc3Cl)nc21",
    "residual activity, %": 20.8
  },
  {
    "smilesRecord": "Cc1ccccc1-c1nc2c(o1)C(=O)c1ccccc1C2=O",
    "residual activity, %": 38.1
  }
]

Record O=C1c2ccccc2C(=O)c2oc(-c3cccc(Cl)c3)nc21 , field residual activity: 49.3

Record Cc1ccc(-c2nc3c(o2)C(=O)c2ccccc2C3=O)cc1 , field residual activity: 44.6

----------
- targetOfAssay: Ubiquitin carboxyl-terminal hydrolase 8 (Homo sapiens)
- assayRemarks: Inhibition of N-terminal His-6 tagged USP8 (734 to 1110 residues) (unknown origin) expressed in Escherichia coli BL21 (DE3) cells at 10 nM measured after 3 hrs by fluorescence based Plate reader method relative to control
- measurementParameters: values are per cent of control
# reported residual activity; entries follow
Numeric only. Scale: %

Below, 3 molecules whose answers are already recorded.
[
  {
    "smilesRecord": "COc1ccc(F)c(-c2nc3c(o2)C(=O)c2ccccc2C3=O)c1Cl",
    "targetOfAssay": "Ubiquitin carboxyl-terminal hydrolase 8 (Homo sapiens)",
    "reportedProperty": "residual activity",
    "measured": 41.5
  },
  {
    "smilesRecord": "Cc1ccc(-c2nc3c(o2)C(=O)c2ccccc2C3=O)cc1",
    "targetOfAssay": "Ubiquitin carboxyl-terminal hydrolase 8 (Homo sapiens)",
    "reportedProperty": "residual activity",
    "measured": 58.6
  },
  {
    "smilesRecord": "Cc1cccc(-c2nc3c(o2)C(=O)c2ccccc2C3=O)c1",
    "targetOfAssay": "Ubiquitin carboxyl-terminal hydrolase 8 (Homo sapiens)",
    "reportedProperty": "residual activity",
    "measured": 63.6
  }
]

Record CN1CCN(CCOc2ccc(F)c(-c3nc4c(o3)C(=O)c3ccccc3C4=O)c2Cl)CC1 , field residual activity: 26.7

Record COc1cc(-c2nc3c(o2)C(=O)c2ccccc2C3=O)ccc1C(F)(F)F , field residual activity: 58.5

Record COc1ccc(Cl)c(-c2nc3c(o2)C(=O)c2ccccc2C3=O)c1 , field residual activity: 47.1

Record O=C1c2ccccc2C(=O)c2oc(-c3ccccc3F)nc21 , field residual activity: 37.1

Record N#Cc1ccc(-c2nc3c(o2)C(=O)c2ccccc2C3=O)cc1 , field residual activity: 38.9

Record CN1CC[C@@H](Oc2cc(Cl)cc(-c3nc4c(o3)C(=O)c3ccccc3C4=O)c2)C1 , field residual activity: 59.3

Record O=C1c2ccccc2C(=O)c2oc(-c3c(F)cccc3F)nc21 , field residual activity: 39.1

Record COc1ccccc1-c1nc2c(o1)C(=O)c1ccccc1C2=O , field residual activity: 43.9

----------
- targetOfAssay: Ubiquitin thioesterase OTUB1 (Homo sapiens, UniProt Q96FW1)
- Sequence (Q96FW1 whole entry, the tested form may be a part): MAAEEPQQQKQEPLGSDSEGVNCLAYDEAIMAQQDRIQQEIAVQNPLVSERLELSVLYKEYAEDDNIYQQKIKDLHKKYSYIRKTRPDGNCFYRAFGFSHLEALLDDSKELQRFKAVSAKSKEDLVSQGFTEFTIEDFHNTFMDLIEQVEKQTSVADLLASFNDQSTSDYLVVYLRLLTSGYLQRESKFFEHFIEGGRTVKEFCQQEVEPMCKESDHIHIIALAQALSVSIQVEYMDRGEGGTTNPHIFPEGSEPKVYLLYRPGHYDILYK
- assayRemarks: Inhibition of N-terminal His-6 tagged OTUB1 (40 to 271 residues) (unknown origin) expressed in Escherichia coli BL21 (DE3) cells at 10 nM using Ub-Rho measured after 0.5 to 3 hrs by fluorescence based Plate reader method relative to control
- measurementParameters: time 0.5-3 hrs, values are per cent of control
reportedProperty: residual activity (%)
Numeric only. Scale: %

Below, 4 compounds whose answers are already recorded.
[
  {
    "smilesRecord": "O=C1c2ccccc2C(=O)c2oc(-c3c(F)ccc(F)c3Cl)nc21",
    "residual activity (%)": 23.3
  },
  {
    "smilesRecord": "O=C1c2ccccc2C(=O)c2oc(-c3c(F)c(F)cc(F)c3F)nc21",
    "residual activity (%)": 39.4
  },
  {
    "smilesRecord": "CN1CC[C@@H](Oc2ccc(-c3nc4c(o3)C(=O)c3ccccc3C4=O)cc2Cl)C1",
    "residual activity (%)": 69.8
  },
  {
    "smilesRecord": "CN1CCN(CCOc2cc(-c3nc4c(o3)C(=O)c3ccccc3C4=O)ccc2Cl)CC1",
    "residual activity (%)": 75.9
  }
]

Record COc1cc(-c2nc3c(o2)C(=O)c2ccccc2C3=O)ccc1C(F)(F)F , field residual activity: 71.4

Record O=C1c2ccccc2C(=O)c2oc(-c3ccc(Cl)cc3Cl)nc21 , field residual activity: 62.4

Record O=C1c2ccccc2C(=O)c2oc(-c3ccccc3C(F)(F)F)nc21 , field residual activity: 62.6

Record Cc1ccc(F)c(-c2nc3c(o2)C(=O)c2ccccc2C3=O)c1F , field residual activity: 53.7

Record CN1CC[C@@H](Oc2cc(Cl)cc(-c3nc4c(o3)C(=O)c3ccccc3C4=O)c2)C1 , field residual activity: 75

Record COc1cc(-c2nc3c(o2)C(=O)c2ccccc2C3=O)ccc1C , field residual activity: 70.8

----------
- targetOfAssay: Ubiquitin carboxyl-terminal hydrolase 8 (Homo sapiens) (UniProt P40818)
- assayRemarks: Inhibition of N-terminal His-6 tagged USP8 (734 to 1110 residues) (unknown origin) expressed in Escherichia coli BL21 (DE3) cells at 10 nM measured after 3 hrs by fluorescence based Plate reader method relative to control
- measurementParameters: values are per cent of control
Classify: met when residual activity is strictly less than 60%; not met when residual activity is not.

[
  {
    "smilesRecord": "O=C1c2ccccc2C(=O)c2oc(-c3cccc(C(F)(F)F)c3)nc21",
    "assignedClass": "met"
  },
  {
    "smilesRecord": "CN1CCN(CCOc2cc(-c3nc4c(o3)C(=O)c3ccccc3C4=O)ccc2Cl)CC1",
    "assignedClass": "not met"
  },
  {
    "smilesRecord": "COc1cccc(-c2nc3c(o2)C(=O)c2ccccc2C3=O)c1F",
    "assignedClass": "met"
  },
  {
    "smilesRecord": "CN1CC[C@@H](Oc2ccc(-c3nc4c(o3)C(=O)c3ccccc3C4=O)cc2Cl)C1",
    "assignedClass": "not met"
  },
  {
    "smilesRecord": "CN1CCN(CCOc2ccc(Cl)c(-c3nc4c(o3)C(=O)c3ccccc3C4=O)c2F)CC1",
    "assignedClass": "met"
  }
]

Consider the compound COc1cc(-c2nc3c(o2)C(=O)c2ccccc2C3=O)ccc1Cl . Is its residual activity strictly less than 60%?
met

Consider the compound CN1CC[C@@H](Oc2cc(-c3nc4c(o3)C(=O)c3ccccc3C4=O)ccc2Cl)C1 . Is its residual activity strictly less than 60%?
met

Consider the compound O=C1c2ccccc2C(=O)c2oc(-c3cccc(OCCN4CCOCC4)c3)nc21 . Is its residual activity strictly less than 60%?
not met

----------
- assayRemarks: Tmax in ICR mouse at 10 mg/kg, po measured upto 1440 mins by LC-MS/MS analysis
- Assay type: ADME, organism-based
- measurementParameters: in vivo
# reported Tmax; entries follow
Numeric only. Scale: min

[
  {
    "smilesRecord": "CN1CC[C@@H](Oc2ccc(Cl)c(-c3nc4c(o3)C(=O)c3ccccc3C4=O)c2)C1",
    "Tmax / min": 19.8
  }
]

Turning to the following compound.
Record CN1CC[C@@H](Oc2ccc(F)c(-c3nc4c(o3)C(=O)c3ccccc3C4=O)c2Cl)C1 , field Tmax: 19.8

----------
- targetOfAssay: Ubiquitin thioesterase OTUB1 (Homo sapiens, UniProt Q96FW1)
- assayRemarks: Destabilization of N-terminal His-6 tagged OTUB1 (40 to 271 residues) (unknown origin) expressed in Escherichia coli BL21 (DE3) cells assessed as reduction in melting temperature at 200 uM measured for 2 hrs in presence of dithiothreitol by SYPRO orange dye based thermal shift assay
reportedProperty: ΔTm (°C)
Numeric only. Scale: °C

Record O=C1c2ccccc2C(=O)c2oc(-c3cccnc3)nc21 , field ΔTm: 1

----------
# reported residual activity; entries follow
- targetOfAssay: UniProtKB P40818
- Sequence (whole entry): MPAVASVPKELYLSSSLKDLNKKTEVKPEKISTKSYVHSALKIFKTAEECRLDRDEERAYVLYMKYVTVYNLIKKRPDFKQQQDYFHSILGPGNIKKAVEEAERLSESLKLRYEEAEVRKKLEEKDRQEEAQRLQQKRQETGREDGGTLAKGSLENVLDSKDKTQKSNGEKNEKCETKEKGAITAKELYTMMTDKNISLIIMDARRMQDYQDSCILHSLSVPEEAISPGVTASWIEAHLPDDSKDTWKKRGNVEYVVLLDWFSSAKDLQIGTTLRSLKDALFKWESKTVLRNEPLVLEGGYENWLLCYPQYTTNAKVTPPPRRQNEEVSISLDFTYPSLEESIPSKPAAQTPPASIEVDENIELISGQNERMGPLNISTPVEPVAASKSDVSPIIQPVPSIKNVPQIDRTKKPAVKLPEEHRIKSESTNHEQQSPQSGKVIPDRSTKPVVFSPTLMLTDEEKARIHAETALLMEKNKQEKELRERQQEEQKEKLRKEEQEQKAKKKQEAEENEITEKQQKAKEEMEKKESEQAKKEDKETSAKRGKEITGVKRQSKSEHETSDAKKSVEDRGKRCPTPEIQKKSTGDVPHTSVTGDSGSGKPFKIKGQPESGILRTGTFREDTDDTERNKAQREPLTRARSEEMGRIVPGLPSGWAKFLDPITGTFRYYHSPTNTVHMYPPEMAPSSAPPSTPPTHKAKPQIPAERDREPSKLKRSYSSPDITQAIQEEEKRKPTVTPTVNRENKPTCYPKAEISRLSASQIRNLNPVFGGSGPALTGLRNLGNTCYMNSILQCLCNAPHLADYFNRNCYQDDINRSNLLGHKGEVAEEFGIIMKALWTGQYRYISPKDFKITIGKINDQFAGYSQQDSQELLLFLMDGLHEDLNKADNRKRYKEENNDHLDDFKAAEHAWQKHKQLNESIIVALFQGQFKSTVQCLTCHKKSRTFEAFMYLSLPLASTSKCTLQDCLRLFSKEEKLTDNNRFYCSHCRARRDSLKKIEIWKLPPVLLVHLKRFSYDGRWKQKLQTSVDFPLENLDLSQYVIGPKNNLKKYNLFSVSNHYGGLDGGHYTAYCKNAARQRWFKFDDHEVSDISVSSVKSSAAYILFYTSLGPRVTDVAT
- assayRemarks: Inhibition of N-terminal His-6 tagged USP8 (734 to 1110 residues) (unknown origin) expressed in Escherichia coli BL21 (DE3) cells at 10 nM measured after 3 hrs by fluorescence based Plate reader method relative to control
- measurementParameters: values are per cent of control
Numeric only. Scale: %

[
  {
    "smilesRecord": "CN1CC[C@@H](Oc2ccc(-c3nc4c(o3)C(=O)c3ccccc3C4=O)c(Cl)c2)C1",
    "targetOfAssay": "UniProtKB P40818",
    "residual activity, %": 58.9
  },
  {
    "smilesRecord": "COc1c(Cl)ccc(Cl)c1-c1nc2c(o1)C(=O)c1ccccc1C2=O",
    "targetOfAssay": "UniProtKB P40818",
    "residual activity, %": 56.9
  },
  {
    "smilesRecord": "O=C1c2ccccc2C(=O)c2oc(-c3ccccc3Cl)nc21",
    "targetOfAssay": "UniProtKB P40818",
    "residual activity, %": 43.1
  },
  {
    "smilesRecord": "CN1CC[C@H](Oc2cccc(-c3nc4c(o3)C(=O)c3ccccc3C4=O)c2)C1",
    "targetOfAssay": "UniProtKB P40818",
    "residual activity, %": 60.2
  }
]

Turning to the following compound.
Record O=C1c2ccccc2C(=O)c2oc(-c3ccc(Cl)cc3)nc21 , field residual activity: 55.9
